Measured values drawn from PubChem BioAssay (NCI) for this set.

Test system: SR leukemia
Test: NCI-60 one-dose screen, 48 h (100 = growth as untreated, 0 = no growth, -100 = all killed)
Details: 10 µM unless noted
About 83,000 compounds went through this panel and 20% of them were active in at least one assay; those are over-represented in the sample as a whole.
Entries and their growth

molecule | growth (%)
CN(C)c1ccc(C(=S)c2ccc(N(C)C)cc2)cc1 | 33.2
Cc1c2ncccc2nc2[nH]c3ccc(OCCN(C)C)cc3c12 | 12.8
O=c1oc2ccccc2cc1-c1nn(-c2ccccc2)cc1-c1nn[nH]n1 | 92.4
COc1cc(/C=C/c2cc(/C=C/c3ccc(O)c(OC)c3)n(C(=O)Nc3ccc(Cl)cc3)n2)ccc1O | 1.52
C=C(C)[C@@H]1CC[C@]2(CO)CC[C@]3(C)[C@H](CC[C@@H]4[C@@](C)(CCCN)[C@H](C(=C)C)CC[C@]43C)[C@@H]12 | -14
CC[C@@H](C(=O)[C@@H](C)[C@@H](O)[C@H](C)[C@@H]1O[C@@H]([C@@H](CC)C(=O)ONC(=O)c2ccccc2O)CC[C@@H]1C)C1O[C@]2(C=CC(=O)[C@]3(CC[C@@](C)([C@H]4CC[C@](O)(CC)[C@H](C)O4)O3)O2)[C@H](C)C[C@@H]1C (some centres not stated) | 1.64
Nc1c(Cl)cc(/C=C2\C=Cc3ccccc32)cc1Cl | 93.9

---

System: OVCAR-3 ovarian
Experiment: NCI-60 one-dose screen, 48 h
Conditions: 10 µM unless noted
The panel holds about 83,000 compounds, 20% with a hit somewhere; the sample as a whole holds those more often. Calls of active or inactive are those of the source. How the source made its calls: active means growth percent below 10; inactive means the rest.
Outcomes: T for active, F for inactive

molecule | classAssignment
Cc1nn(-c2ccc([N+](=O)[O-])cc2)c2ncnc(N/N=C/c3ccccc3O)c12 | F
C=C1C(=O)O[C@H]2[C@H]1CC/C(COC(=O)/C=C\C(=O)NCc1ccc(Cn3c(=O)sn(CCCCl)c3=O)cc1)=C\CC[C@@]1(C)O[C@@H]21 | F
CN(C)CCCNC(=O)c1cncnc1Nc1ccc2c(ccn2Cc2cccc(F)c2)c1 | F
Fc1cc2[nH]ncc2c2c3c(c(-c4cn[nH]c4C(F)(F)F)nc12)CCCC3 | T
CC(=O)O[C@H]1CC[C@]2(C)[C@H]3CC=C4[C@@H]5CC(C)(C)CC[C@]5(C(=O)N5CCN(CCC#N)CC5)CC[C@@]4(C)[C@]3(C)CC[C@H]2C1(C)C | T
CN(C)c1ccc([C@@H](C(=O)Nc2cccc([N+](=O)[O-])c2)N(C(=O)c2cc3ccccc3[nH]2)c2cccc([N+](=O)[O-])c2)cc1 | F
CN1C(=O)/C(=C/c2ccc(C(=O)Nc3ncc(Cc4cccc(C(F)(F)F)c4)s3)cc2)SC1=S | F
COc1ccc(C(=O)C/C(=C\c2ccc(O)c(OC)c2)C(=O)NN)cc1 | F
O=c1oc2ccccc2cc1-c1nn(-c2ccccc2)cc1-c1nn[nH]n1 | F
CCOC(=O)C1=C(CCl)N(C)C(=O)NC1c1ccc2c(c1)OCO2 (stereo not given) | F
CCN(CC)CCOc1ccc2c(-c3ccccc3)c(-c3ccc(OC)cc3)c(=O)oc2c1 | F
Fc1ccc(/C=C/[C@@H]2C[C@@H](F)CCO2)cc1 | F
CN(C)c1ccc(/C=N\NC(=O)c2ccc3nc(-c4ccc(Cl)cc4)[nH]c3c2)cc1 | F
COc1ccc(C/C(C)=C(\c2ccc(Cl)cc2)c2ccc(OCCN3CCCC3)cc2)cc1 | F
CCN(CC)c1ccc(-c2cc(-c3cc(OC)c(OC)c(OC)c3)nc(N3CCC(O)CC3)c2C#N)cc1 | T
O=C(/C=C/C12c3ccccc3C(c3ccccc31)C1C(=O)NC(=O)C12)c1ccco1 (stereo not given) | F
O=S(=O)(Nc1cc(F)cc(F)c1)c1ccc(-c2cnc(C3CC3)o2)cc1 | T
O=C(Nc1cc(Cl)cc(Cl)c1)Oc1c(Cl)c(Cl)c(Cl)c(Cl)c1Cl | F
Nc1nc(C(=O)N/N=C/c2ccc(F)cc2)nn1-c1ccc(S(N)(=O)=O)cc1 | F
c1ccc(-c2nc3ccccc3[nH]2)c(OCCCCCOc2ccccc2-c2nc3ccccc3[nH]2)c1 | F
CC(C)=CC(=O)N[C@H]1CC[C@]2(C)C3CC[C@]4(C)C(C(C)N(C)C)=CCC4C3CCC2[C@H]1O (stereo not given in full) | F
CC1(C)CC[C@]23CC[C@]4(C)[C@H](CC[C@@H]5[C@@]6(C)CCNCC(C)(C)[C@@H]6CC[C@]54C)[C@H]2[C@H]1OC3 | F
Cn1cc(-c2nonc2-c2c[nH]c3ccccc23)c2cc(Br)ccc21 | F
O=C1/C(=C/c2ccccn2)SC(=S)N1N1CCOCC1 | F
O=C(NC1CCC(Br)CC1)C1CCCC(S(=O)(=O)NC2CCCCC2)C1 (stereo not given) | F

---

Test system: PC-3 prostate
Experiment: NCI-60 one-dose screen, 48 h (100 = growth as untreated, 0 = no growth, -100 = all killed)
Conditions: 10 µM unless noted
This is part of a sample that, as a whole, favours compounds with a hit. Of some 83,000 tested, about 20% had one in any assay.

compound | growth / %
Cc1cccc(NC(=O)N/C(N)=N/c2nc3ccccc3s2)c1 | 34.2
Cc1cc(N2CCN(CC(=O)Nc3ccc4c(ccn4Cc4ccccc4)c3)CC2)nc(N2CCOCC2)n1 | 57
NC(=O)c1ccccc1OCC(=O)Nc1ccc(Cl)c(Cl)c1 | 106
Cc1ccc(NC(=O)c2sc3nc(C)c(C(O)c4ccccc4)cc3c2N)cc1 (stereo not given) | 19.6
O=C1NC(=O)C(c2coc3cc(Br)ccc23)=C1c1c[nH]c2ccccc12 | 67.2
O=C1C(Cl)=C(Nc2ccccc2)C(=O)c2ccccc21 | 39.7
Cc1nn(C)c2ncnc(N/N=C/c3cccc(O)c3O)c12 | 35.9
CCOC(=O)c1nnn(Cc2cc(=O)oc3ccc(O)cc23)c1C | 95.2
CCOC(=O)CNC1=C(Cl)C(=O)N(Cc2ccc(Cl)cc2)C1=O | 97.7
Cc1nc2sc(C(=O)Nc3cccc(Cl)c3C)c(N)c2cc1C(=O)/C=C/c1ccccc1 | 0.225

---

Tested on: U251 CNS
Assay: NCI-60 one-dose screen, 48 h (100 = growth as untreated, 0 = no growth, -100 = all killed)
Conditions: 10 µM unless noted
Compounds without any hit were thinned out: in the full panel of roughly 83,000, 20% have a hit. Calls of active or inactive are those of the source. Rule for the calls: active = growth percent below 10; inactive = the rest.
growth for assorted molecules
metricName: growth

molecule | assayedTarget | result
Cc1cccc(-c2nc(C(C)C)sc2-c2ccnc(NCCCNS(=O)(=O)c3ccc(Cl)cc3)c2)c1 | U251 CNS | 73% (inactive)
N#Cc1ccc(/C=C/c2cn(-c3ccccc3)nc2-c2cccc([N+](=O)[O-])c2)cc1 | U251 CNS | 46.7% (inactive)
CCn1cc(C(=O)O)c(=O)c2cc(F)c(N3CCN(CC(=O)Nc4ccccc4)C(C)C3)c(F)c21 (configuration not stated) | U251 CNS | 102% (inactive)
FC(F)(F)c1[nH]ncc1-c1nc2ccc3[nH]ncc3c2c2c1CCCC2 | U251 CNS | 5.69% (active)
Cc1sc2nc(NCCN)[nH]c(=O)c2c1C | U251 CNS | 95.9% (inactive)
COc1ccc(C/C(C)=C(\c2ccc(Cl)cc2)c2ccc(OCCN3CCCC3)cc2)cc1 | U251 CNS | 61.1% (inactive)
CC1=Nc2cnc(Nc3ccc(N4CCCCC4)cc3)nc2Nc2ccccc21 | U251 CNS | 83.8% (inactive)
Cc1ccc(S(=O)(=O)N2CCCN(c3nc(-c4ccccc4)nc4nc(-c5ccccc5)oc34)CC2)cc1 | U251 CNS | 104% (inactive)
COC(=O)c1nc(-c2ccccc2)oc1S(=O)(=O)N1CCCC(C)C1 (configuration not stated) | U251 CNS | 90.8% (inactive)
O=C1Nc2ccc(Cl)cc2/C1=C/c1ccc[nH]1 | U251 CNS | 100% (inactive)
O=C(NC1CCC(Br)CC1)C1CCCC(S(=O)(=O)NC2CCCCC2)C1 (configuration not stated) | U251 CNS | 18.5% [25 µM] (inactive)
CCOC(=O)c1c(NC(=O)c2ccccc2)sc2c3c(ccc12)OCN(C)C3 | U251 CNS | -13% (active)

---

System: SK-MEL-2 melanoma
Experiment: NCI-60 one-dose screen, 48 h
Settings: 10 µM unless noted
Compounds without any hit were thinned out: in the full panel of roughly 83,000, 20% have a hit. Calls of active or inactive are those of the source. Rule for the calls: active = growth percent below 10; inactive = the rest.
Outcomes: yes for active, no for inactive

molecule | classAssignment
CCOC(=O)C(CCN(C)C)c1ccccc1 (configuration not stated) | no
CCOc1ccc(NC(=O)Nc2ccc(OCC)cc2)cc1 | no
NCCCNc1nc2ccccc2c2c(=O)c3cc(Cl)ccc3sc12 | no
O=C(Nc1cc(Cl)ccc1O)c1ccccc1Nc1ccnc(C(F)(F)F)c1 | no
Cn1cc(-c2nonc2-c2c[nH]c3ccccc23)c2cc(Br)ccc21 | no
Nc1[nH]nc2nc(-c3ccccc3)n3c4ccccc4nc3c12 | no
C=C1C(=O)O[C@@H]2C3C(=C(C)CC[C@@H]12)CC1O[C@]13C (some centres not stated) | no
O=C(C[C@]1(O)C(=O)Nc2ccc(Br)cc21)c1ccco1 | no
Nc1ncnc2c1N=C(c1ccc(Cl)cc1)CC(c1cccc(Nc3ccnc4cc(Cl)ccc34)c1)N2 (configuration not stated) | no
CN(C)CCn1c(=O)c2ccccc2n2nc3ccccc3c12 | no
O=c1cc(C(F)(F)F)c2cc(-c3cc4ccccc4c(=O)o3)c(O)cc2o1 | no
O=C(NC1CCC(Br)CC1)C1CCCC(S(=O)(=O)NC2CCCCC2)C1 (configuration not stated) | no
COc1cc(/C=C/C(=O)c2cc(OC)c(OC)c(OC)c2)ccc1Oc1nc2c(c(=O)n(C)c(=O)n2C)n1C | no
COc1cccc(-c2cn3nc(-c4cn(C)c5ccccc45)sc3n2)c1 | no
COc1ccc(N/N=C/c2cn(-c3ccc(C(=O)O)cc3)nc2-c2cc3ccccc3oc2=O)cc1 | no
CS(=O)(=O)Nc1cc(-c2ccc3ncnc(Nc4ccc(F)c(Cl)c4)c3c2)ccc1Cl | no
COc1cc(/C=C/c2cn[nH]c2-c2ccc(C)cc2)cc(OC)c1OC | yes
Cc1ccc2c(/C=C/C(=O)c3cc(CN4CCOCC4)c(O)c4nc(C)ccc34)cc(CN3CCOCC3)c(O)c2n1 | yes
CNC(=O)c1cc(Oc2ccc3c(c2)sc2nc(-c4cc(C(F)(F)F)cc(C(F)(F)F)c4)cn23)ccn1 | no
CCOC(=O)NCCCC(=O)NCCc1ccccc1 | no
O=C(Nc1ccc(Nc2ccncc2)cc1)c1ccc(Nc2ccnc3ccc([N+](=O)[O-])cc23)cc1 | no
N=C(N)c1ccc(-c2ccc(-c3cc(Cl)cc(Cl)c3)s2)s1 | no
